The values you see were collected from patent US20240116946A1.

Biological target: recombinant SARS-CoV-2 Main protease (Mpro) (Severe acute respiratory syndrome coronavirus 2 (2019-nCoV) (SARS-CoV-2), UniProt P0DTD1)
Experiment: Cov Mpro Biochemical IC50 Assay
Details: recombinant SARS-CoV-2 Mpro, fluorogenic peptide substrate; read-out: MPro IC50
pIC50 for assorted compounds
Scale explanation: pIC50 corresponds to minus log10 of a concentration expressed in moles per litre.

Please review the entries below; each comes with its answer.
Prompt: Quick one: pIC50 for Cc1cncc(-n2c(=O)[nH]c3cc(-c4ccccc4Cl)sc3c2=O)c1C ?
Response: 8.04

Prompt: Quick one: pIC50 for O=c1c2sc(-c3ccccc3Cl)cc2n(Cc2ccnnc2)c(=O)n1-c1cncc2ccccc12 ?
Response: 8.04

Prompt: Quick one: pIC50 for N#Cc1ccccc1-c1nc2[nH]c(=O)n(-c3cncc4ccccc34)c(=O)c2s1 ?
Response: 6.54

Further cases:
Prompt: Quick one: pIC50 for Cc1cc(-c2cc3[nH]c(=O)n(-c4cncc5ccccc45)c(=O)c3s2)c(Cl)cc1F ?
Response: 7.76
